- System: RPMI-8226 leukemia
- assayExplanation: NCI-60 one-dose screen, 48 h (100 = growth as untreated, 0 = no growth, -100 = all killed)
- assayContext: 10 µM unless noted
- Protocol: Growth inhibition of the RPMI-8226 human tumor cell line is measured as a screen for anti-cancer activity. Cells are grown in 96 well plates and exposed to the test compound for 48 hours. Compounds are tested at a single concentration, which is 10^-5 M for most compounds. The reported endpoint is percent growth (GI% or GIPRCNT), where numbers from 0 - 100% represent growth inhibition, and numbers from -100% - 0 represent cell death. For example, a value of 40 represents 60% growth inhibition. […]
Compounds without any hit were thinned out: in the full panel of roughly 83,000, 20% have a hit. Active and inactive are the calls of the source. How the source made its calls: active means growth percent below 10; inactive means the rest.
observedProperty: growth

{"columns": ["molecule", "observedProperty", "recordedResult"],
 "data": [
  ["O=C(NCCCCNC(=O)OCc1ccc2c(Cl)cc(Cl)c(O)c2n1)OCc1ccc2c(Cl)cc(Cl)c(O)c2n1", "growth", "25% (inactive)"]
]}

What value of measured growth is listed for Cc1ccc(NC(=S)NNC(=S)NNc2ccccc2)cc1C ? 78.9% (inactive)

Then what about the molecule COc1cc(CNC(=O)/C=C/C=C/c2ccc3c(c2)OCO3)ccc1OCc1cn(-c2ccc(C)c(C)c2)nn1 ? 86.3% (inactive)

Similarly, C=C(C)[C@@H]1CC[C@]2(C(=O)N3CCN(C)CC3)CC[C@]3(C)[C@H](CC[C@@H]4[C@@]5(C)CC(=C/c6ccncc6)/C(=N/O)C(C)(C)[C@@H]5CC[C@]43C)[C@@H]12 ? 46.7% (inactive)

Now try Cc1cccc(N2CCN(CC(O)COc3ccc(Cl)cc3)CC2)c1 (configuration not stated) . 77.6% (inactive)

Same question for C#CCOc1ccc2ncnc(Nc3ccc(NC(=O)CCl)cc3)c2c1 please. -16.7% (active)

And COC(C(=O)[C@@H](O)[C@@H](C)O)[C@@H]1Cc2cc3cc(O[C@H]4C[C@@H](O[C@H]5C[C@@H](O)[C@H](O)C(C)O5)[C@H](O)C(C)O4)cc(O)c3c(O)c2C(=O)[C@H]1O[C@H]1C[C@@H](O[C@H]2C[C@@H](O[C@H]3C[C@@H](OC)[C@H](O)C(C)O3)[C@@H](O)C(C)O2)[C@H](O)C(C)O1 (some centres not stated) ? 50% (inactive)

Now consider CCOC(=O)C#Cc1c(C(=O)OCC)nnn1[C@@H]1O[C@H](CO)[C@H]2OC3(CCCCC3)O[C@H]21 . 14.2% (inactive)

Do the same for O=C(NNC(=O)c1ccc(-n2cc(-c3ccccc3)nn2)cc1)Nc1ccccc1 please 102% (inactive)

Now try CN(C)CC(=O)Nc1ccc2ncnc(Nc3ccc(Oc4cccc(C(F)(F)F)c4)c(Cl)c3)c2c1 . 31.2% (inactive)

Proceed to O=C(O)[C@@H]1c2ccccc2-c2ccccc2[C@H]1C(=O)O 100% (inactive)

Query O=C(CSc1nnc2n1S(=O)(=O)c1ccccc1N2c1ccccc1)Nc1nc2ccc(F)cc2s1 next 76.5% (inactive)

Would you mind doing C#Cc1ccc(NC(=O)c2ccc(/C=C/C(=O)c3nccn3C)cc2)cc1 as well? -25.9% (active)

Would you kindly repeat that for COC(=O)[C@]1(C)CCC[C@]2(C)[C@H]3C[C@H]4C(C(C)C)=C[C@]3(CC[C@H]21)[C@H]1[C@@H]4[C@@H](OCCC#N)CC[C@@H]1OCCC#N ? -16.1% (active)

Try this molecule next: O=C1c2cc(Cl)ccc2S(=O)(=O)c2c(NCCCNCCO)nc3ccccc3c21 -22.2% (active)

For COc1cc(-c2nc(SCCC(C)C)nc(Nc3ccccc3Cl)c2C#N)cc(OC)c1OC then? 101% (inactive)

Then this molecule: COc1ccc2[nH]cc(C(c3cc(F)cc(F)c3)c3c[nH]c4ccc(OC)cc34)c2c1 57.5% (inactive)
